All figures here come from PubChem BioAssay AID1347076.

assay: qHTS assay for MDR1-selective chemotherapeutics: Primary screen using the drug-selected MDR subline cells KB-V1; conditions: KB-V1 MDR cells viability, CellTiter-Glo, 72 h; series mostly up to 46.1 µM; further: nearly all actives have a fitted effect of over 60% in size
Hit rate of the full screen: of about 400,000 compounds, about 13,000 (3.2%) were called active. Inconclusive results (about 18%) are left out. The call rests on the fitted dose curve; in most records, active means well fitted cell-killing curve with a large enough effect; inconclusive means small, poorly fitted or top-dose-only effect, or effect the other way; inactive means flat fitted curve, though single readings scatter. The list comes from a sample in which actives are over-represented; it also holds close analogues and randomly drawn compounds.
Mark one answer only. Choices: class 1 (active), class 0 (inactive)

Asked: So what was the verdict on CCCC12CN3CC(CCC)(CN(C1)C3c1c[nH]c3ccc(OC)cc13)C2=O (stereo not given) in this test?
Given back: class 0

Asked: So what was the verdict on COc1ccc(C2NC(=O)c3ccccc3N2)cc1 (stereo not given) in this test?
Given back: class 0

Asked: So what was the verdict on C=CCOc1cccc(C2NC(=O)c3ccccc3O2)c1 (stereo not given) in this test?
Given back: class 0

Asked: So what was the verdict on COc1ccc(OC)c(CNC(=O)C2CCCN(c3nc4ccccc4o3)C2)c1 (stereo not given) in this test?
Given back: class 0

Asked: So what was the verdict on O=C1NC(c2cccc(Cl)c2)Nc2ccccc21 (stereo not given) in this test?
Given back: class 1

Next:
Asked: So what was the verdict on `COc1ccccc1CNC(=O)C1CCN(c2nc3ccccc3o2)CC1` in this test?
Given back: class 0

Asked: So what was the verdict on `CCOc1ccc(CCN2C(=S)N([C@@H](CC(C)C)CN3CCC[C@@H]3CN3C(=S)NC[C@@H]3Cc3ccc(O)cc3)C[C@@H]2CC(C)C)cc1` in this test?
Given back: class 0

Asked: So what was the verdict on Cc1ccc(CN2CC(N3CCC(Cc4ccccc4)CC3)CS2(=O)=O)cc1 (stereo not given) in this test?
Given back: class 0

Asked: So what was the verdict on `Oc1c(Cl)cc(Cl)c(Cl)c1Cc1c(O)c(Cl)cc(Cl)c1Cl` in this test?
Given back: class 1

Asked: So what was the verdict on CCc1ccc(CNC(=O)C2CCCN(c3nc4ccccc4o3)C2)cc1 (stereo not given) in this test?
Given back: class 1
